Source: the MegaScale stability set (Tsuboyama et al. 2023)

B1: EHEE_rd2_0601 (parent)
chain: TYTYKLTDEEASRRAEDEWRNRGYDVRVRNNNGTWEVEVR

Variants of: B1
protocol_description: folding stability dG (cDNA display proteolysis); higher = more stable
measurement_parameters: PBS, room temperature
Label t for high-side folding stability dG (at or above 1 kcal/mol) and f for low-side folding stability dG (below it).

| variant_identifier | answer_label |
| --- | --- |
| E16G | t |
| V39R | f |
| R14H | t |
| N21E | t |
| T1H | t |
| N21L | t |
| E16P | f |
| D25E | t |
| E36C | t |
| R27Y | t |
| A15H | t |
| D8W | f |
| K5H | t |
| W19A | f |
| E36W | t |
| N32S | f |
| N31Y | t |
| W35P | f |
| D17A | t |
| N30S | t |
| V28M | f |
| Y2I | t |
| Y24Q | f |
| N31D | t |
| T1E | f |
| R40T | t |
| A11M | t |
| D25N | t |
| A15N | f |
| L6I | t |
| D25K | t |
| D17Q | t |
| L6D | f |
| E18S | t |
| R27L | t |
| R13Q | f |
| T3K | t |
| R13P | f |
| R40L | t |
| T7C | t |
| R27C | t |
| E16M | t |
| N30T | f |
| D25H | t |
| S12K | f |
| R27K | t |
| V28L | f |
| K5L | t |
| E10S | t |
| T7F | t |
| V28I | t |
| N21Q | t |
| Y2R | t |
| E9R | f |
| T1F | t |
| E10G | t |
| R22V | f |
